Target: TRKA (Homo sapiens (Human), UniProt P04629)
Sequence (P04629 441-796): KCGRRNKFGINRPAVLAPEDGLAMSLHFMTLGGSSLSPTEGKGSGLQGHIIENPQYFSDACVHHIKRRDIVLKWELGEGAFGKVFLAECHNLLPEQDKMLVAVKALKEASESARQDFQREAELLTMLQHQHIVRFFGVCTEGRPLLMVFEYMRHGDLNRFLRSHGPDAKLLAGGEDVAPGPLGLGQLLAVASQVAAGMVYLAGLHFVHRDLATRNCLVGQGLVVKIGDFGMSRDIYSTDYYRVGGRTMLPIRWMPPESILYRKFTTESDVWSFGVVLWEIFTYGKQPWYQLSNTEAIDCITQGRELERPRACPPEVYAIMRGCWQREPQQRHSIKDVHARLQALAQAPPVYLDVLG
Assay: Isolated TRK enzyme assay (HTRF KinEASE-TK), TRKA
Type: biochemical
Details: read-out: Trka enzyme (IC50)
EXPERIMENTAL ENDPOINT: IC50 (nM)

>>> observed_measurement("CC(C)n1cc(C(=O)c2cncc(NC(=O)Cn3ncc4ncccc43)c2)c2cncnc21")
95.5

1: CC(C)n1cc(C(=O)c2cncc(NC(=O)Cc3ccc4nccnc4c3)c2)c2cncnc21
2: CC(C)n1ncc(CC(=O)Nc2cncc(C(=O)c3cn(C(C)(C)CO)c4nc(N)ncc34)c2)c1C(F)(F)F
3: CC(C)n1cc(C(=O)c2cncc(NC(=O)Cc3cccc(C(=O)c4ccccc4)c3)c2)c2cncnc21
4: CC(C)n1cc(C(=O)c2c[nH]c(=O)c(NC(=O)Cc3ccc(Cl)cn3)c2)c2cncnc21
5: Cn1cc(CC(=O)Nc2cncc(C(=O)c3cn(C(C)(C)C)c4ncncc34)c2)c(C2CC2)n1
Prompt: Please produce an ascending ranking of these compounds based on IC50. Present the labels in the sequence the task asks for.
Completion: 2, 3, 4, 1, 5

1: COc1ccnc(C(=O)Nc2cncc(C(=O)c3cn(C(C)C)c4ncncc34)c2)c1
2: CC1(n2cc(C(=O)c3cncc(NC(=O)c4cccc(OC(F)(F)F)c4)c3)c3cncnc32)COC1
Prompt: Please indicate which item has the smaller measured IC50: 1 versus 2 Answer format: the label of the selected item.
Completion: 2
(2: 3.09 nM, 1: 70.4 nM)
